Each entry below lists one item and its recorded viability, T/C value.
System: K98450-129-R-PDC complex spheroid growth, percent test/control
experiment-summary: Anticancer human tumor K98450-129-R-PDC patient-derived colon adenocarcinoma cell line growth inhibition [RAS]
condition-parameters: second compound 1 µM; first compound 0.0316 µM; stronger effect = lower value
Text: RAS pathway inhibitors in Combinations in Complex Spheroids A high-throughput screen of multi-cell type tumor spheroids was designed to identify active combinations of RAS pathway inhibitors and targeted small molecules. Complex spheroids include a stromal component modeled by human endothelial cells (HUVEC) and fibroblasts modeled by human mesenchymal stem cells (MSCs). […] Compounds. […] If the clinical Cmax for an agent had not been determined, the highest concentration tested was 10 microM. […]

Worked cases, answers included:
- C=CC(=O)N1CCN(c2nc(OCC3CCCN3C)nc3c(F)c(-c4nc(N)cc(C)c4C(F)(F)F)c(Cl)cc23)C(C)C1 (stereo not drawn) + C#Cc1c(F)ccc2cc(O)cc(-c3ncc4c(N5CC6CCC(C5)N6)nc(OCC56CCCN5CC(F)C6)nc4c3F)c12: 67%
- C=CC(=O)Nc1cc(Nc2nccc(-c3cn(C)c4ccccc34)n2)c(OC)cc1N(C)CCN(C)C + C=CC(=O)N1CCN(c2nc(OCC3CCCN3C)nc3c(F)c(-c4nc(N)cc(C)c4C(F)(F)F)c(Cl)cc23)C(C)C1: 22.6%

Consider now this further molecule.
For the molecule CCN1CCN(Cc2ccc(Nc3ncc(F)c(-c4cc(F)c5nc(C)n(C(C)C)c5c4)n3)nc2)CC1 + C=CC(=O)N1CCN(c2nc(OCC3CCCN3C)nc3c(F)c(-c4nc(N)cc(C)c4C(F)(F)F)c(Cl)cc23)C(C)C1 , what viability, T/C is on record? 28.7%

* * *

Test system: K98450-129-R-PDC complex spheroid growth, percent test/control
experiment-summary: Anticancer human tumor K98450-129-R-PDC cell line growth inhibition [RAS];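 note: luminescence used as a proxy for viable cell amount; spheroids exposed to agents for seven days before the viability readout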
condition-parameters: second compound 0.3 µM; first compound 10 µM; stronger effect = lower value
observable: viability, T/C (%)
Respond with the bare value in %.

Worked examples, 3 compounds total:
- CC(=O)OC12COC1CC(O)C1(C)C(=O)C(O)C3=C(C)C(OC(=O)C(O)C(NC(=O)OC(C)(C)C)c4ccccc4)CC(O)(C(OC(=O)c4ccccc4)C21)C3(C)C (centres undefined) + CCn1c(-c2cc(N3CCN(C)CC3)cnc2C(C)OC)c2c3cc(ccc31)-c1csc(n1)CC(NC(=O)C1CC1C)C(=O)N1CCCC(N1)C(=O)OCC(C)(C)C2: 9.38
- Cc1nc(N2CCC3(CC2)COC(C)C3N)c(CO)nc1Sc1ccnc(N)c1Cl (centres undefined) + CCn1c(-c2cccnc2C(C)OC)c2c3cc(ccc31)N1CCOC(CC(NC(=O)C(C(C)C)N(C)C(=O)C3(F)CCN(C(=O)C#CC(C)(C)N(C)C)CC3)C(=O)N3CCCC(N3)C(=O)OCC(C)(C)C2)C1: 6.57
- C[C@@H](NC(=O)c1ncnc(N)c1Cl)c1ncc(C(=O)Nc2cc(C(F)(F)F)c(Cl)cn2)s1 + CCn1c(-c2cccnc2C(C)OC)c2c3cc(ccc31)N1CCOC(CC(NC(=O)C(C(C)C)N(C)C(=O)C3(F)CCN(C(=O)C#CC(C)(C)N(C)C)CC3)C(=O)N3CCCC(N3)C(=O)OCC(C)(C)C2)C1: 39.3

Switching to the query record.
Would you kindly share the measured viability, T/C for CC(C)NCC(C(=O)N1CCN(c2ncnc3c2C(C)CC3O)CC1)c1ccc(Cl)cc1 (centres undefined) + CCn1c(-c2cccnc2C(C)OC)c2c3cc(ccc31)N1CCOC(CC(NC(=O)C(C(C)C)N(C)C(=O)C3(F)CCN(C(=O)C#CC(C)(C)N(C)C)CC3)C(=O)N3CCCC(N3)C(=O)OCC(C)(C)C2)C1 ? 32.2
